# System: NCI-H522
# ASSAY PROCEDURE: Cytotoxicity against human NCI-H522 cells assessed as growth inhibition
# Format: functional
Measured GI50 accompanies every entry in the list below.

{"RECORD SMILES": "Cc1cc(/C=C2\\CCc3c(n(C)c4ccccc34)C2=O)cc(C)c1O", "UNIT INFO": "nM", "GI50": 140}
{"RECORD SMILES": "Cc1cc(/C=C2\\CCc3c([nH]c4ccccc34)C2=O)cc(C)c1O", "UNIT INFO": "nM", "GI50": 130}
{"RECORD SMILES": "Cc1cc(/C=C2\\Cc3c([nH]c4ccccc34)C2=O)cc(C)c1O", "UNIT INFO": "nM", "GI50": 90}
{"RECORD SMILES": "COc1cc2c(c(N)c1OC)C(=O)/C(=C\\c1cc(C)c(O)c(C)c1)C2", "UNIT INFO": "nM", "GI50": 10}

---

# System: U-251
# ASSAY PROCEDURE: Cytotoxicity against human U251 cells assessed as growth inhibition
# Assay type: functional

{"COMPOUND": "Cc1cc(/C=C2\\CCc3c(n(C)c4ccccc34)C2=O)cc(C)c1O", "UNIT INFO": "nM", "GI50": 540}
{"COMPOUND": "COc1cc2c(c(N)c1OC)C(=O)/C(=C\\c1cc(C)c(O)c(C)c1)C2 [INDANOCINE]", "UNIT INFO": "nM", "GI50": 20}
{"COMPOUND": "Cc1cc(/C=C2\\Cc3c([nH]c4ccccc34)C2=O)cc(C)c1O", "UNIT INFO": "nM", "GI50": 1120}
{"COMPOUND": "Cc1cc(/C=C2\\CCc3c([nH]c4ccccc34)C2=O)cc(C)c1O", "UNIT INFO": "nM", "GI50": 430}

---

# System: SF-295
# ASSAY PROCEDURE: Cytotoxicity against human SF295 cells assessed as growth inhibition
# Format: functional
MEASURED PARAMETER: GI50 (nM)

{"RECORD SMILES": "Cc1cc(/C=C2\\CCc3c(n(C)c4ccccc34)C2=O)cc(C)c1O", "TARGET SYSTEM": "SF-295", "EXPERIMENTAL RESULT": 1480}
{"RECORD SMILES": "Cc1cc(/C=C2\\CCc3c([nH]c4ccccc34)C2=O)cc(C)c1O", "TARGET SYSTEM": "SF-295", "EXPERIMENTAL RESULT": 1880}
{"RECORD SMILES": "COc1cc2c(c(N)c1OC)C(=O)/C(=C\\c1cc(C)c(O)c(C)c1)C2", "TARGET SYSTEM": "SF-295", "EXPERIMENTAL RESULT": 60}
{"RECORD SMILES": "Cc1cc(/C=C2\\Cc3c([nH]c4ccccc34)C2=O)cc(C)c1O", "TARGET SYSTEM": "SF-295", "EXPERIMENTAL RESULT": 2780}

---

Measured GI50 accompanies every entry in the list below.
# Tested on: MDA-MB-231
# ASSAY PROCEDURE: Cytotoxicity against human MDA-MB-231 cells assessed as growth inhibition
# Assay type: functional

{"RECORD SMILES": "Cc1cc(/C=C2\\CCc3c([nH]c4ccccc34)C2=O)cc(C)c1O", "TARGET SYSTEM": "MDA-MB-231", "GI50 [nM]": 1060}
{"RECORD SMILES": "Cc1cc(/C=C2\\Cc3c([nH]c4ccccc34)C2=O)cc(C)c1O", "TARGET SYSTEM": "MDA-MB-231", "GI50 [nM]": 3190}
{"RECORD SMILES": "COc1cc2c(c(N)c1OC)C(=O)/C(=C\\c1cc(C)c(O)c(C)c1)C2", "TARGET SYSTEM": "MDA-MB-231", "GI50 [nM]": 10}
{"RECORD SMILES": "Cc1cc(/C=C2\\CCc3c(n(C)c4ccccc34)C2=O)cc(C)c1O", "TARGET SYSTEM": "MDA-MB-231", "GI50 [nM]": 1060}
